Origin of the recorded values: the RNAGym collection of RNA variant scans (doi:10.7554/elife.80360)

B1: HDV Ribozyme (parent)
chain: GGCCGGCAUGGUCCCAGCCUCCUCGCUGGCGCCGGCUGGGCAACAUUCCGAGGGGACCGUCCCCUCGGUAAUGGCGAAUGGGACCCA

Variants of: B1
Assay: self-cleavage, relative activity (ratio to wild type); higher = more cleavage; co-transcriptional
ASSAY_METRIC: self-cleavage

> print(dat)
                                   seq.text   assay.metric  endpoint.result
1  GGCCGGCAUGUUCCCAGCCCCCUCGCUGGCGCCGGCUGGGCAACAUUCCGAGGGGACCGUCCCCUCGGUAAUGGCGAAUGGGACCCA [G11U U20C]  self-cleavage           0.0248
2  GGCUGGCAUGGUCCCAGCCUCCUCGCUGGCGCCGGCUGGGCAACAUUCCGAGGGGACCGUCCCCUCGGUAAUGGCAAAUGGGACCCA [C4U G76A]  self-cleavage            0.443
3  GGCCGGCAUGGUCCCAGCCUCCUCGCUGGCGCCGGCUGGGCAACAUUCCGAGGGGACCGUCCCCUCGGUAAUGGCGAAUGGCACGCA [G82C C85G]  self-cleavage            0.119
4  GGCCGGCAUGGUCCCAGCCUCCUCGCUGGCGCCGGCUGGGCAACAUUCUGAGGGGACCGUCCCCUCGGUAAGGGCGAAUGGGACCCA [C49U U72G]  self-cleavage            0.745
5  GGCCGGCAUGGUCCCAGCCUCCUCGCCGGCGCCGGCUGGGCAACAUUCCGAGGGGACCGUCCCCUCCGUAAUGGCGAAUGGGACCCA [U27C G67C]  self-cleavage            0.997
6  GGCCGGCCUGGUCCCAGCCUCCUCGCUGUCGCCGGCUGGGCAACAUUCCGAGGGGACCGUCCCCUCGGUAAUGGCGAAUGGGACCCA [A8C G29U]  self-cleavage            0.151
